Source of measurements: paper PMC8809517

- EXPERIMENTAL_TARGET: T1, GFP-9S library array, motif 4 ND D124H (synthetic construct, D124H)
- T1 chain: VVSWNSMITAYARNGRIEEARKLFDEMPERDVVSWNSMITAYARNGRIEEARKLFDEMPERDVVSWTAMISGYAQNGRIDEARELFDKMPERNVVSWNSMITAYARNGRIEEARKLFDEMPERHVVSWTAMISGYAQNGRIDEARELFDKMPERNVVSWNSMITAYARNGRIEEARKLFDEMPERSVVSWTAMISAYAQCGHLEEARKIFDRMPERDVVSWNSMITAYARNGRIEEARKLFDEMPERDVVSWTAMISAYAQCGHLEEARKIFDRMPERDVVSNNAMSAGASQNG
- ASSAY_METHOD_TEXT: high-throughput RNA pulldown from lysate on Ni-NTA beads; HRP: 50 mM Tris pH 8, 150 mM NaCl, 1 mM beta-mercaptoethanol, 50 ug/ml BSA, 3 ug/ml yeast RNA, 0.5% heparin; ITC and FP: Tris pH 8, 200 mM KCl, 5% glycerol; MST: 50 mM Tris pH 8, 200 mM NaCl, 1 mM DTT, BSA, heparin, 0.05% Tween 20
- EXPERIMENTAL_CONTEXT: tags: N-terminal His-eGFP; label: 5' Cy5
For each of the binders below, state its Kd.
Provide only the numeric value, understood in nM.

Quick note, Kd for AUUAGACGUGA (ssRNA) [Cy5-rpoA-G] landed at 287

Memo: AUUACACGUGA (ssRNA) [Cy5-rpoA] , reported Kd: 166
